# targetSystem: IgG receptor FcRn large subunit p51 (Homo sapiens, UniProt P55899)
# Sequence (P55899 whole entry): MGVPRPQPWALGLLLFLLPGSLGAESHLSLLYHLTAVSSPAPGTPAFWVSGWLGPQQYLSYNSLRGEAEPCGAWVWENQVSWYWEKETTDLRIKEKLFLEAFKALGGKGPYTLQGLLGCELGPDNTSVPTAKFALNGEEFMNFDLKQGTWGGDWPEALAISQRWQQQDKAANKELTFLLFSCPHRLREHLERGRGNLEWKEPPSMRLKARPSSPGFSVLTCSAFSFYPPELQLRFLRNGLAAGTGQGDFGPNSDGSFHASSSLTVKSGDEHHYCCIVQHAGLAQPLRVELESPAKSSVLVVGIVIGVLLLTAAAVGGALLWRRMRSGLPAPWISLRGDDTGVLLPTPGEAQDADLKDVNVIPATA
# protocolText: Binding affinity to human FcRn at pH 6 by surface plasmon resonance assay
measuredAttribute: Kd (µM)
Use µM as the unit, but write only the number.

>>> obsvalue("CC(C)C[C@@H](C(=O)N[C@@H](Cc1ccc(O)cc1)C(=O)N1CCC[C@H]1C(=O)N[C@@H](CS)C(=O)O)N(C)C(=O)CN(C)C(=O)CNC(=O)[C@H](Cc1ccccc1)NC(=O)[C@H](Cc1ccsc1)NC(=O)CNC(=O)[C@@H](NC(=O)[C@@H](NC(=O)[C@H](Cc1ccccc1)NC(=O)[C@@H](N)CCCN=C(N)N)C(C)(C)S)[C@@H](C)O")
2

Okay, now this molecule:
[in] Tell me reported Kd for CC(C)C[C@H](NC(=O)CNC(=O)CNC(=O)[C@H](Cc1ccccc1)NC(=O)[C@H](Cc1cnc[nH]1)NC(=O)CNC(=O)[C@@H](NC(=O)[C@@H](NC(=O)[C@H](Cc1ccccc1)NC(=O)[C@H](CCCNC(=N)N)NC(=O)[C@@H](N)CCC(N)=O)C(C)(C)S)[C@@H](C)O)C(=O)N[C@@H](Cc1ccc([N+](=O)[O-])cc1)C(=O)N1CCC[C@H]1C(=O)N[C@@H](CS)C(=O)N[C@@H](CC(N)=O)C(=O)NCC(=O)N1CCC[C@H]1C(=O)O , tested with IgG receptor FcRn large subunit p51 (Homo sapiens, UniProt P55899).
[out] 180
